ligation selection enrichment values by entry
B1: library; a variant is named by its letters at N, in order (parent)
chain: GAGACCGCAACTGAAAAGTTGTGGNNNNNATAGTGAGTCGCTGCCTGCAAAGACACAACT

- Variants of: B1
- PROTOCOL_NOTES: ligation selection enrichment (abundance after / before one-round selection) (fold); higher = more template-directed ligation activity
- ASSAY_CONTEXT: with T7Psub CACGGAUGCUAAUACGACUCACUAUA; MgCl2 25 mM; 42 °C; 4 h; pH 8.5
# answer = number (no unit)

GAGACCGCAACTGAAAAGTTGTGGCTCTGATAGTGAGTCGCTGCCTGCAAAGACACAACT [CTCTG]    0.298

## Input What does the data say about its ligation selection enrichment? Entry: GAGACCGCAACTGAAAAGTTGTGGTCGCTATAGTGAGTCGCTGCCTGCAAAGACACAACT [TCGCT]
## Output 0.299

## Input Give the measured ligation selection enrichment of GAGACCGCAACTGAAAAGTTGTGGGCTGAATAGTGAGTCGCTGCCTGCAAAGACACAACT [GCTGA] .
## Output 0.315

## Input Any idea what its ligation selection enrichment is? The variant is GAGACCGCAACTGAAAAGTTGTGGTTTGTATAGTGAGTCGCTGCCTGCAAAGACACAACT [TTTGT]
## Output 0.164

## Input Given GAGACCGCAACTGAAAAGTTGTGGCAACAATAGTGAGTCGCTGCCTGCAAAGACACAACT [CAACA] , state its recorded ligation selection enrichment.
## Output 0.134

## Input Look at this variant and give its reported ligation selection enrichment. GAGACCGCAACTGAAAAGTTGTGGTACTCATAGTGAGTCGCTGCCTGCAAAGACACAACT [TACTC]
## Output 0.103

## Input Item GAGACCGCAACTGAAAAGTTGTGGAGTTTATAGTGAGTCGCTGCCTGCAAAGACACAACT [AGTTT] has what recorded ligation selection enrichment?
## Output 0.427

## Input Recorded ligation selection enrichment for GAGACCGCAACTGAAAAGTTGTGGTTAGCATAGTGAGTCGCTGCCTGCAAAGACACAACT [TTAGC] , please?
## Output 0.139

## Input Find the recorded ligation selection enrichment belonging to GAGACCGCAACTGAAAAGTTGTGGTATATATAGTGAGTCGCTGCCTGCAAAGACACAACT [TATAT] and report it.
## Output 0.817

## Input Sample GAGACCGCAACTGAAAAGTTGTGGTAAAGATAGTGAGTCGCTGCCTGCAAAGACACAACT [TAAAG] — what was its ligation selection enrichment?
## Output 0.553

## Input Given the variant GAGACCGCAACTGAAAAGTTGTGGTAAATATAGTGAGTCGCTGCCTGCAAAGACACAACT [TAAAT] , what is its reported ligation selection enrichment?
## Output 0.784

## Input Entry under review: GAGACCGCAACTGAAAAGTTGTGGGTTGTATAGTGAGTCGCTGCCTGCAAAGACACAACT [GTTGT] . Reported ligation selection enrichment?
## Output 0.353

## Input Quick one: ligation selection enrichment of GAGACCGCAACTGAAAAGTTGTGGAGCAGATAGTGAGTCGCTGCCTGCAAAGACACAACT [AGCAG] ?
## Output 0.325

## Input Fill blank: measured ligation selection enrichment of the variant GAGACCGCAACTGAAAAGTTGTGGTTTCAATAGTGAGTCGCTGCCTGCAAAGACACAACT [TTTCA] is ____.
## Output 0.268

## Input GET /values?readout=ligation selection enrichment&item= GAGACCGCAACTGAAAAGTTGTGGAAAAGATAGTGAGTCGCTGCCTGCAAAGACACAACT [AAAAG]
## Output 0.226

## Input Requested field: ligation selection enrichment. Item: GAGACCGCAACTGAAAAGTTGTGGTAGCGATAGTGAGTCGCTGCCTGCAAAGACACAACT [TAGCG]
## Output 0.52

## Input Need ligation selection enrichment of GAGACCGCAACTGAAAAGTTGTGGGTTCGATAGTGAGTCGCTGCCTGCAAAGACACAACT [GTTCG] , thanks.
## Output 2.43

## Input Which ligation selection enrichment reading was recorded for the variant GAGACCGCAACTGAAAAGTTGTGGCCCCCATAGTGAGTCGCTGCCTGCAAAGACACAACT [CCCCC] ?
## Output 0.199

## Input # input variant: GAGACCGCAACTGAAAAGTTGTGGCCACAATAGTGAGTCGCTGCCTGCAAAGACACAACT [CCACA] ; wanted: its ligation selection enrichment
## Output 0.0899

## Input Consider the variant GAGACCGCAACTGAAAAGTTGTGGCGAAAATAGTGAGTCGCTGCCTGCAAAGACACAACT [CGAAA] and give its measured ligation selection enrichment.
## Output 0.31
